Target: FGFR1 (Homo sapiens (Human))
Sequence (P11362 22-822): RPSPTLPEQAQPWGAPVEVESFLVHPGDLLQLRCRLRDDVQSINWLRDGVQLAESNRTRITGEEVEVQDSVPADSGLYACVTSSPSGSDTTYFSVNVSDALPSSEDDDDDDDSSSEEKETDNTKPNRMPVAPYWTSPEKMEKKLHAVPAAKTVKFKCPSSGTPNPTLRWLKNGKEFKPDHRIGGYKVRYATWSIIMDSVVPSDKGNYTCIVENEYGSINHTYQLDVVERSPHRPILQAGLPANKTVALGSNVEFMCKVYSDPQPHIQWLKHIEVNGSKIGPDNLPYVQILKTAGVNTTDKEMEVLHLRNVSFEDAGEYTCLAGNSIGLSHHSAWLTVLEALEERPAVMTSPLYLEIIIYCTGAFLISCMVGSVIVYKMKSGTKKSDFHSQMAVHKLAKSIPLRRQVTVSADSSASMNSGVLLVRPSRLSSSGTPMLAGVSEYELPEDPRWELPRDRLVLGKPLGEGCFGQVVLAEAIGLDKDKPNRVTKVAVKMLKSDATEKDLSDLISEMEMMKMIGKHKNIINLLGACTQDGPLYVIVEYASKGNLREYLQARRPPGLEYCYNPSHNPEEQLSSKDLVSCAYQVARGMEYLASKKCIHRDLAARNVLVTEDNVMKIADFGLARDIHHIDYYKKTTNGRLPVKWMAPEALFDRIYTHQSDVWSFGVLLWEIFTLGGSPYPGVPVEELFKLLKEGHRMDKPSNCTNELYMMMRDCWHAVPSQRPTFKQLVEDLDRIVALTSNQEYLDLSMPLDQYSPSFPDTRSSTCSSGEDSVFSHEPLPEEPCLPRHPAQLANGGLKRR
Assay: Z'-LYTE kinase inhibition assay, FGFR1
Type: biochemical
Details: read-out: % inhibition FGFR1; heading: % inhibition FGFR1; compound at 0.041 μM
inhibition at 0.041 µM reference

Would you please look over these solved cases?
C=CC(=O)Nc1cccc(-c2cccc3cnc(Nc4ccc(N5CCN(C)CC5)c(OC)c4)nc23)c1 | > 50%
Fc1cccc(-c2cccc3cnc(Nc4ccc(N5CCNCC5)cc4)nc23)c1 | > 50%
Clc1cccc(-c2cccc3cnc(Nc4ccc(N5CCOCC5)cc4)nc23)c1 | < 50%
C=CC(=O)Nc1cccc(-c2cccc3cnc(Nc4ccc(N5CCN(CCF)CC5)cc4)nc23)c1 | > 50%
C=CC(=O)Nc1cccc(-c2cccc3cnc(Nc4ccc(N5CCN(C(C)=O)CC5)cc4)nc23)c1Cl | < 50%
Fc1ccc(OCCN2CCOCC2)cc1-c1cccc2cnc(Nc3ccc(N4CCOCC4)cc3)nc12 | < 50%

So, `C=CC(=O)Nc1cccc(-c2cccc3cnc(Nc4ccc(N5CCOCC5)cc4)nc23)c1` ? Its inhibition at 0.041 µM was > 50%

So, `C=CC(=O)Nc1cccc(-c2cccc3cnc(Nc4ccc(N5CCN(C)CC5)cc4F)nc23)c1` ? Its inhibition at 0.041 µM was < 50%

So, `C=CC(=O)Nc1cccc(-c2cccc3cnc(Nc4ccc(N5CCN(CCO)CC5)cc4)nc23)c1` ? Its inhibition at 0.041 µM was > 50%

So, `C=CC(=O)Nc1cccc(-c2cccc3cnc(Nc4ccc(N5CCN(C(C)=O)CC5)nc4)nc23)c1` ? Its inhibition at 0.041 µM was < 50%

###

Biological target: BTK (Homo sapiens (Human))
Sequence (Q06187 whole entry): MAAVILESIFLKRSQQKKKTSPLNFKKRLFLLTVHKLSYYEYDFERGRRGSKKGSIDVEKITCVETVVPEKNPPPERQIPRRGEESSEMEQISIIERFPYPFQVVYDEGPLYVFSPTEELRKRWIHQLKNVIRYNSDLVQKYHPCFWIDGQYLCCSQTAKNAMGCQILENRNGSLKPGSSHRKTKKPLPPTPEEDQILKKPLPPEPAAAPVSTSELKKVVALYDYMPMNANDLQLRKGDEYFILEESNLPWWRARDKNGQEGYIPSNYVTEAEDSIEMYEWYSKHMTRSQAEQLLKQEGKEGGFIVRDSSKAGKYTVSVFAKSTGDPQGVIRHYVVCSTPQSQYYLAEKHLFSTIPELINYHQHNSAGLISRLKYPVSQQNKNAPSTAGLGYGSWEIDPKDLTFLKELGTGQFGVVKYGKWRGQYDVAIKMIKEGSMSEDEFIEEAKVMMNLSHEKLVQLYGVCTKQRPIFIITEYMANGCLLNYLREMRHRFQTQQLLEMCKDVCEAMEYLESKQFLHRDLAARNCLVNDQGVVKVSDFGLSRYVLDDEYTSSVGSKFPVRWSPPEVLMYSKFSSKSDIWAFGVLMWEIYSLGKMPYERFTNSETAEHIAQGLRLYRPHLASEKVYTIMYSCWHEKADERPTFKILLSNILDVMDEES
Assay: Z'-LYTE kinase inhibition assay, BTK
Format: biochemical
Settings: read-out: % inhibition BTK; heading: % inhibition BTK; compound at 0.041 μM
inhibition at 0.041 µM reference

Would you please look over these solved cases?
C=CC(=O)Nc1cccc(-c2cccc3cnc(Nc4ccc(O[C@H]5CCOC5)cc4)nc23)c1 [Example C113] | > 50%
C=CC(=O)Nc1cccc(-c2nccc3cnc(Nc4ccc(N5CCOCC5)cc4)nc23)c1 [Example C012] | > 50%
c1ccc(-c2cccc3cnc(Nc4ccc(N5CCOCC5)cc4)nc23)cc1 [Example C004] | < 50%
Fc1ccc(OCCN2CCOCC2)cc1-c1cccc2cnc(Nc3ccc(N4CCOCC4)cc3)nc12 [Example C023] | < 50%
C=CC(=O)Nc1cccc(-c2c(C)ccc3cnc(Nc4ccc(N5CCOCC5)cc4)nc23)c1 [Example C033] | > 50%
C=CC(=O)Nc1cccc(-c2cccc3cnc(Nc4ccc(O[C@H]5CCN(C)C5)cc4)nc23)c1 [Example C121] | > 50%
C=CC(=O)Nc1cccc(-c2cccc3cnc(Nc4ccc(NC5CCN(C)CC5)cc4)nc23)c1 [Example C118] | > 50%

Consider the record given below.
So, C=CC(=O)Nc1cccc(-c2cccc3cnc(Nc4ccc(O[C@@H]5CCN(C)C5)cc4)nc23)c1 [Example C123] ? Its inhibition at 0.041 µM was > 50%

###

Biological target: EGFR (ErbB1) T790M L858R (Homo sapiens (Human), UniProt P00533, L858R/T790M)
Sequence (P00533 25-1210 T790M/L858R): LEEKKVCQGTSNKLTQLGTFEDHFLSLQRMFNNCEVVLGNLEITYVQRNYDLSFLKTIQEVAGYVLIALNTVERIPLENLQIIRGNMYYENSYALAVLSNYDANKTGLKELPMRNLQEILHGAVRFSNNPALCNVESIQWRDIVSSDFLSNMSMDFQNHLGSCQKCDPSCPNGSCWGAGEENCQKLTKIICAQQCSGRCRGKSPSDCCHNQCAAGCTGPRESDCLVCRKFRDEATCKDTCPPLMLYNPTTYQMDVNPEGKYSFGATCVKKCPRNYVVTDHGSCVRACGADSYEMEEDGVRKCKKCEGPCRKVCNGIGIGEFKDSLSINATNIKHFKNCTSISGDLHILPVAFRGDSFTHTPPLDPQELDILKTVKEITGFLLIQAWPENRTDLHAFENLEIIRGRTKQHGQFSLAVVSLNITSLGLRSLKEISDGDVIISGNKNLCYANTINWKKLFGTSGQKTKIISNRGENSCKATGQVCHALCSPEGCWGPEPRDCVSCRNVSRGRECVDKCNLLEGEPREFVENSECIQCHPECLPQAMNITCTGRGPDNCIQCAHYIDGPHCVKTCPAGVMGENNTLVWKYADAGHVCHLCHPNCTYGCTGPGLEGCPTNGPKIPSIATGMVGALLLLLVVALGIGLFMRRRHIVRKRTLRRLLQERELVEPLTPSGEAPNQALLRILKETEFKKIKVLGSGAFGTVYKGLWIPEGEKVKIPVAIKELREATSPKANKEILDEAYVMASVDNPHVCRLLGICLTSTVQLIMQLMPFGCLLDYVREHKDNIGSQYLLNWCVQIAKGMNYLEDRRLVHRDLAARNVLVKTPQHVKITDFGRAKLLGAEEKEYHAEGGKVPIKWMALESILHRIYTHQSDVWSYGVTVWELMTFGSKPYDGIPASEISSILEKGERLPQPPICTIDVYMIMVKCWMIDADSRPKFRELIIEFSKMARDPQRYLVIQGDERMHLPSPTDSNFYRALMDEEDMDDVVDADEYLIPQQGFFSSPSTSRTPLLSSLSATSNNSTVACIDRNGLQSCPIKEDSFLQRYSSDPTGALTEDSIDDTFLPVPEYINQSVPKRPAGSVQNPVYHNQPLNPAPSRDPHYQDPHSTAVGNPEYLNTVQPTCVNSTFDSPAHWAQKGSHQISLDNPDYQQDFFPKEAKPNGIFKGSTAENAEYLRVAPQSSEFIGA
Test: Z'-LYTE kinase inhibition assay, EGFR L858R/T790M
Format: biochemical
Conditions: read-out: % inhibition EGFR L858R/T790M (Compound at 0.0137 μM)
experimental-readout: inhibition at 0.0137 µM

Would you please look over these solved cases?
C=CC(=O)Nc1cccc(-c2cccc3cnc(Nc4ccc(N5CCN(C(C)=O)CC5)cc4)nc23)c1 | < 50%
C=CC(=O)Nc1cccc(-c2cccc3cnc(Nc4ccc(N5CCN(C)CC5)nc4)nc23)c1 | > 50%

Consider the record given below.
# lookup: `C=CC(=O)Nc1cccc(-c2cccc3cnc(Nc4ccc(N5CCN(C)CC5)c(C(N)=O)c4)nc23)c1` on EGFR (ErbB1) T790M L858R (Homo sapiens (Human), UniProt P00533, L858R/T790M), inhibition at 0.0137 µM = > 50%
